Each entry below carries its reported hCD71:HSA.
molecular target: T1, recombinant biotinylated CD71 extracellular domain (Sino Biologics) with an N-terminal 6His tag (human, UniProt P02786 89-760, biotinylated (sites not given)); assay: screening ELISA, ratio
T1 construct: extracellular domain; also called hCD71; huCD71
T1 sequence (P02786 other isoform, or with tags, fused parts or gaps): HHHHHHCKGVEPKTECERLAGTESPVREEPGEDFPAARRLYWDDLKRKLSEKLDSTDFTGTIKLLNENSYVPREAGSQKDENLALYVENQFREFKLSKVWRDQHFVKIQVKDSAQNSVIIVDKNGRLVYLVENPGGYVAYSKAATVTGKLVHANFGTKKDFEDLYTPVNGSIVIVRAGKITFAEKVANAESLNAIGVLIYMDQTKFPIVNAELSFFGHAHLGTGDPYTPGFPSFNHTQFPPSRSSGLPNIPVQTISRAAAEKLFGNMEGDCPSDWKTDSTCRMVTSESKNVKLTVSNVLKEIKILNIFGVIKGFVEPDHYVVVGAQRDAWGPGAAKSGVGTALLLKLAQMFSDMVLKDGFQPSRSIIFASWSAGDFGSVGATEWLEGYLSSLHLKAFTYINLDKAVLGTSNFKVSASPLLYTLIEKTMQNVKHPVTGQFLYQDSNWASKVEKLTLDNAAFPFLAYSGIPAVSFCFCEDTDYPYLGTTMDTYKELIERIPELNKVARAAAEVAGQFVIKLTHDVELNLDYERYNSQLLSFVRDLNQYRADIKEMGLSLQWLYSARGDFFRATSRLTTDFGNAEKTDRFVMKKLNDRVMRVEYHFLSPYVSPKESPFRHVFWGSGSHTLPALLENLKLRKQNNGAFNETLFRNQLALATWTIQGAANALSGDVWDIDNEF
When you answer, write just the number.

Worked cases, hCD71:HSA given:
SEQ ID NO 142 (designed binder, FN3 domain) MLPAPKNLVVSRVTKDSARLSWTAPDAAFDSFHIAYEEATTYGEAIFLRVPGSERSYDLTGLKPGTEYEVKIHGVKGGADSKPLVAPFTT ... 1000
SEQ ID NO 113 (designed binder, FN3 domain) MLPAPKNLVVSRVTEDSARLSWTAPDAAFDSFDIHYKEHSWWGEAIVLTVPGSERSYDLTGLKPGTEYIVPIPGVKGGGISRPLSAIFTT ... 95
SEQ ID NO 240 (designed binder, FN3 domain) MLPAPKNLVVSRVTEDSARLSWTAPDAAFDSFRIKYLEWWLGGEAIVLTVPGSERSYDLTGLKPGTEYWVDIQGVKGGVLSWPLSAIFTT ... 1480
SEQ ID NO 206 (designed binder, FN3 domain) MLPAPKNLVVSRVTEDSARLSWTAPDAAFDSFDIEYDELWKNGEAIVLTVPGSERSYDLTGLKPGTEYRVFIYGVKGGYGSFPLSAIFTT ... 314
SEQ ID NO 131 (designed binder, FN3 domain) MLPAPKNLVVSRVTEDSARLSWTAPDAAFDSFSIDYYEGKGYGEAIVLTVPGSERSYDLTGLKPGTEYQVLISGVKGGKYSLPLSAIFTT ... 910
SEQ ID NO 87 (designed binder, FN3 domain) MLPAPKNLVVSRVTEDSARLSWTAPDAAFDSFAIEYYEPVPAGEAIYLDVPGSERSYDLTGLKPGTEYDVTIYGVKGGYYSHPLFASFTT ... 2580

query: Quick check: hCD71:HSA of SEQ ID NO 199 (designed binder, FN3 domain) MLPAPKNLVVSRVTEDSARLSWTAPDAAFDSFGIRYFEWWDLGEAIVLTVPGSERSYDPTGLKPGTEYNVTIQGVKGGFPSMPLSAIFTT ?
result: 101

query: Quick check: hCD71:HSA of SEQ ID NO 192 (designed binder, FN3 domain) MLPAPKNLVVSRVTEDSARLSWTALDAAFDSFFIGYLEPQPPGEAIVLTVPGSERSYDLTGLKPGTEYNVTIQGVKGGFPSMPLSAIFTT ?
result: 650

query: Quick check: hCD71:HSA of SEQ ID NO 147 (designed binder, FN3 domain) MLPAPKNLVVSRVTEDSARLSWTAPDAAFDSFFIGYLEPQPPGEAIVLTVPGSERSYDLTGLKPGTEYSVLIHGVKGGRNSDPLSAISTT ?
result: 33
